# EC50 per entry
- Tested on: HL-60
- experimentNotes: HL-60 differentiation potency
- Type: cell-based
- conditionParameters: Homo sapiens

Study these solved cases before continuing.
Reported EC50 for COC(=O)[C@@H]1CCN(CC[C@H]2O[C@@H]3O[C@@]4(C)CC[C@H]5[C@H](C)CC[C@@H]([C@H]2C)[C@@]35OO4)C1 [Compound 70] was > 20 µM

Consider C[C@H]1[C@@H](OCC(=O)N2C[C@H](F)C[C@H]2C(=O)O)O[C@@H]2O[C@@]3(C)CC[C@H]4[C@H](C)CC[C@@H]1[C@@]24OO3 [Compound 150] . Its measured EC50 is > 20 µM

# context switch: different compound, same EC50
The recorded EC50 for C[C@H]1[C@H](N2CC[C@@H](C(=O)O)C2)O[C@@H]2O[C@@]3(C)CC[C@H]4[C@H](C)CC[C@@H]1[C@@]24OO3 [Compound 69] is > 20 µM
